Every entry's value here was drawn from patent US12378261B2.

run description: Optical properties (absorbance, fluorescence emission, quantum yield)
Type: physicochemical
endpoint label: Em (nm)

1. CC1=[O+][B-](F)(F)OC(C)=C1C ... 307
2. CCC1=C(C)O[B-](F)(F)[O+]=C1C ... 306
3. COc1cc(/C=C/C2=CC(/C=C/c3ccc(O)c(OC)c3)=[O+][B-](F)(F)O2)ccc1O ... 571
4. F[B-]1(F)OC(c2ccccc2)=CC(c2ccccc2)=[O+]1 ... 413
5. CC1=CC(c2ccccc2)=[O+][B-](F)(F)O1 ... 328
6. COc1cc(/C=C/C2=CC(/C=C/c3ccc(OC(=O)c4c(F)cc(F)cc4F)c(OC)c3)=[O+][B-](F)(F)O2)ccc1OC(=O)c1c(F)cc(F)cc1F ... 512
7. COc1ccc(C2=CC(c3ccc(OC)cc3)=[O+][B-](F)(F)O2)cc1 ... 438
8. COc1cc(/C=C/C(=O)CC(=O)/C=C/c2ccc(O)c(OC)c2)ccc1O [Curcumin, reference compound] ... 535
9. CCOC(=O)CCC1=C(C)O[B-](F)(F)[O+]=C1C ... 307
